Provenance of the data: paper PMC9645390

target: Aβ42 fibrils (Homo sapiens, UniProt P05067); construct: 1 mg of commercial Aβ42 monomer powder (from GL biochem) was dissolved in 1; purchased GL biochem; test: Fluorescence saturation binding assay with Aβ42 fibrils; conditions: Aβ42 fibrils; 10 mM PBS pH 7.4; one site-specific binding model; read-out: Kd, Fibrils
Sequence (P05067 672-713 limits assumed): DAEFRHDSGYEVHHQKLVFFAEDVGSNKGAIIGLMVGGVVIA
Consider the following compounds and their measured Kd readings.
EXPERIMENTAL_ENDPOINT: Kd

COc1cc(/C=C/c2ccc(-c3ccc(N(C)C)cc3)s2)cc(CN2CCN(C)CCN(C)CC2)c1O 680 nM
COc1cc(/C=C/c2ccc(-c3ccc(C=O)cc3)s2)cc(CN2CCN(C)CCN(C)CC2)c1O 1240 nM
CN1CCN(C)CCN(Cc2cc(/C=C/c3ccc(-c4ccc(N(C)C)cc4)s3)ccc2O)CC1 1820 nM
CN1CCN(C)CCN(Cc2cc(/C=C/c3ccc(-c4ccc(C=O)cc4)s3)ccc2O)CC1 530 nM

---

target: Aβ42 oligomers (Homo sapiens, UniProt P05067); construct: 1 mg of commercial Aβ42 monomer powder (from GL biochem) was dissolved in 1; purchased GL biochem; experiment: Fluorescence saturation binding assay with Aβ42 oligomers; conditions: Aβ42 oligomers; from cross point between plateau and initial slope
Sequence (P05067 672-713 limits assumed): as above
Consider the following compounds and their measured binding ratio, Oligomers readings.
EXPERIMENTAL_ENDPOINT: binding ratio, Oligomers

CN1CCN(C)CCN(Cc2cc(/C=C/c3ccc(-c4ccc(N(C)C)cc4)s3)cc(CN3CCN(C)CCN(C)CC3)c2O)CC1 1.7
COc1cc(OC)cc(-c2ccc(/C=C/c3cc(CN4CCN(C)CCN(C)CC4)c(O)c(OC)c3)cc2)c1 46.7
CN1CCN(C)CCN(Cc2cc(/C=C/c3ccc(-c4ccc(N(C)C)cc4)s3)ccc2O)CC1 4.9
CN1CCN(C)CCN(Cc2cc(/C=C/c3ccc(-c4ccc(C=O)cc4)s3)cc(CN3CCN(C)CCN(C)CC3)c2O)CC1 1.2

---

biological target: Aβ42 fibrils (Homo sapiens, UniProt P05067); construct: 1 mg of commercial Aβ42 monomer powder (from GL biochem) was dissolved in 1; purchased GL biochem; assay: Fluorescence saturation binding assay with Aβ42 fibrils; conditions: Aβ42 fibrils; from cross point between plateau and initial slope
EXPERIMENTAL_ENDPOINT: binding ratio, Fibrils

COMPOUND	TARGET_OR_SYSTEM	EXPERIMENTAL_ENDPOINT	DATA_VALUE
CN1CCN(C)CCN(Cc2cc(/C=C/c3ccc(-c4ccc(C=O)cc4)s3)cc(CN3CCN(C)CCN(C)CC3)c2O)CC1 [ZY-15-DT]	Aβ42 fibrils (Homo sapiens, UniProt P05067)	binding ratio, Fibrils	2.9
CN1CCN(C)CCN(Cc2cc(-c3ccc(/C=C/c4ccc(N(C)C)cc4)s3)ccc2O)CC1 [ZY-12-MT]	Aβ42 fibrils (Homo sapiens, UniProt P05067)	binding ratio, Fibrils	1.3
COc1cc(OC)cc(-c2ccc(/C=C/c3cc(CN4CCN(C)CCN(C)CC4)c(O)c(OC)c3)cc2)c1 [ZY-17-OMe]	Aβ42 fibrils (Homo sapiens, UniProt P05067)	binding ratio, Fibrils	21.9
CN1CCN(C)CCN(Cc2cc(/C=C/c3ccc(-c4ccc(N(C)C)cc4)s3)ccc2O)CC1 [ZY-5-MT]	Aβ42 fibrils (Homo sapiens, UniProt P05067)	binding ratio, Fibrils	2.1
CN1CCN(C)CCN(Cc2cc(/C=C/c3ccc(-c4ccc(C=O)cc4)s3)ccc2O)CC1 [ZY-15-MT]	Aβ42 fibrils (Homo sapiens, UniProt P05067)	binding ratio, Fibrils	10.0
